# method.summary: longer term subconjunctival implantation of pellets in rabbit ocular tissues (HPLC tissue levels, histology)
# Format: in vivo
# condition.parameters: left lens (eye without implant), other: subconjunctival implantation of a pellet, 13 weeks after implantation in right eye, 301,568 psi pellet, read-out: dexamethasone level in Left Lens
measured.parameter: concentration at 13 weeks (ng/g)

item_smiles=C[C@@H]1C[C@H]2[C@@H]3CCC4=CC(=O)C=C[C@]4(C)[C@@]3(F)[C@@H](O)C[C@]2(C)[C@@]1(O)C(=O)CO measured_parameter="concentration at 13 weeks" endpoint_result=18300

* * *

# method.summary: longer term subconjunctival implantation of pellets in rabbit ocular tissues (HPLC tissue levels, histology)
# Assay type: in vivo
# condition.parameters: right cornea (implanted eye), other: subconjunctival implantation of a pellet, 13 weeks after implantation in right eye, 301,568 psi pellet, read-out: dexamethasone level in Right Cornea
measured.parameter: concentration at 13 weeks

item_smiles=C[C@@H]1C[C@H]2[C@@H]3CCC4=CC(=O)C=C[C@]4(C)[C@@]3(F)[C@@H](O)C[C@]2(C)[C@@]1(O)C(=O)CO endpoint_result="40400 ng/g"

* * *

# method.summary: longer term subconjunctival implantation of pellets in rabbit ocular tissues (HPLC tissue levels, histology)
# Format: in vivo
# condition.parameters: right lens (implanted eye), other: subconjunctival implantation of a pellet, 13 weeks after implantation in right eye, 301,568 psi pellet, read-out: dexamethasone level in Right Lens
measured.parameter: concentration at 13 weeks (ng/g)

item_smiles=C[C@@H]1C[C@H]2[C@@H]3CCC4=CC(=O)C=C[C@]4(C)[C@@]3(F)[C@@H](O)C[C@]2(C)[C@@]1(O)C(=O)CO unit_name=ng/g endpoint_result=78100

* * *

# method.summary: longer term subconjunctival implantation of pellets in rabbit ocular tissues (HPLC tissue levels, histology)
# Format: in vivo
# condition.parameters: left sclera/conjunctiva (eye without implant), other: subconjunctival implantation of a pellet, 13 weeks after implantation in right eye, 301,568 psi pellet, read-out: dexamethasone level in Left Sclera/Conjunctiva
measured.parameter: concentration at 13 weeks

compound="C[C@@H]1C[C@H]2[C@@H]3CCC4=CC(=O)C=C[C@]4(C)[C@@]3(F)[C@@H](O)C[C@]2(C)[C@@]1(O)C(=O)CO [dexamethasone]" endpoint_result="20300 ng/g"
